Let's look at some molecules and their measured melting point.

A selection of reference data follows.
• Cc1cc(OCc2ccc(-c3ccc(C(F)(F)F)cc3)nc2C)ccc1SCC(=O)O = 168 to 169 °C
• Cc1cc(N(C)Cc2ccc(-c3ccc(C(F)(F)F)cc3)nc2C)cc(C)c1OCC(=O)O = 137 to 138 °C
• Cc1cc(OCc2cnc(-c3ccc(OC(F)(F)F)cc3)nc2C(F)(F)F)ccc1OC(C)(C)C(=O)O = 153.5 to 154.5 °C
• Cc1c(OCc2cnc(-c3ccc(C(F)(F)F)cc3)nc2C2CC2)ccc(OC(C)(C)C(=O)O)c1C = 214 to 215 °C (dec.)
• Cc1cc(OCc2ccc(-c3ccc(OC(F)(F)F)cc3)nc2)ccc1OC(C)(C)C(=O)O = 146 to 148 °C

Query block: # lookup: melting point of Cc1cc(OCc2cnc(-c3ccc(C(F)(F)F)cc3)nc2C(F)(F)F)ccc1OC(C)(C)C(=O)O
Result block: 149 to 151 °C (dec.)

Query block: Note, next up: COCCc1nc(-c2ccc(C(F)(F)F)cc2)ncc1COc1ccc(OC(C)(C)C(=O)O)c(C)c1
Result block: 119.5 to 120 °C

###

# melting point per entry

A selection of reference data follows.
* Cc1cc(OCc2ccc(-c3ccc(C(F)(F)F)cc3)nc2C2CC2)ccc1OC(C)(C)C(=O)O | 170 to 171 °C
* Cc1cc(OCc2cnc(-c3ccc(C(F)(F)F)nc3)nc2CCO)ccc1OC(C)(C)C(=O)O | 187 to 188 °C (dec.)
* Cc1cc(OCc2ccc(-c3cccc(C(F)(F)F)c3)nc2C)ccc1OC(C)(C)C(=O)O | 105 to 107 °C

Next:
Query block: GET /values?readout=melting point&item= Cc1cc(N(C)Cc2ccc(-c3ccc(Cl)cc3)nc2)ccc1OCC(=O)O
Result block: 174 to 176 °C

###

Recorded measurements of melting point, one per entry

These solved cases illustrate the format of a correct answer.
• CCC(Sc1ccc(OCC(=O)O)c(C)c1)c1ccc(-c2ccc(C(F)(F)F)cc2)nc1C (racemic) = 126 to 128 °C
• CC(C)(Oc1ccc(OCc2cnc(-c3ccc(C(F)(F)F)cc3)nc2C2CC2)c(F)c1)C(=O)O = 177.5 to 178 °C
• Cc1cc(OCc2ccc(-c3ccc(C(F)(F)F)cc3)nc2C)ccc1OC(C)(C)C(=O)O = 164 to 165 °C

Now look at this one.
Query block: Would you kindly share the measured melting point for Cc1cc(OCc2ccc(-c3ccc(C(F)(F)F)cc3)nc2)ccc1OC(C)(C)C(=O)O ?
Result block: 149 to 151 °C

###

Molecular target: PPARδ (Homo sapiens, UniProt Q03181)
Construct: PPARδ (aa 139 to 442); made in house; host or cells: E. coli BL21 (pLysS)
Sequence (Q03181 139-441 limits assumed): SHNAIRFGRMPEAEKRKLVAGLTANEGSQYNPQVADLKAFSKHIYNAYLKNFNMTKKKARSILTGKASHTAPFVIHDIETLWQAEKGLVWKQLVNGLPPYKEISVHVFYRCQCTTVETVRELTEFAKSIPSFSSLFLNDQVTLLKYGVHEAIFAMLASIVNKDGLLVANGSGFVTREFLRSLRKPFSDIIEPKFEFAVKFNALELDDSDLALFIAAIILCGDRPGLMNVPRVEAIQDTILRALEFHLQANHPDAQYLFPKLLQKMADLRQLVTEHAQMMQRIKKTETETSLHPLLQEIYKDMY
Test: PPARδ receptor radioligand binding assay (SPA)
Details: GST-PPARδ-LBD fusion protein on SPA beads
pIC50: −log10 of the molar value.
PROPERTY_NAME: pIC50

* Cc1cc(N(C)Cc2cnc(-c3ccc(C(F)(F)F)cc3)nc2C2CC2)ccc1OCC(=O)O | 7.51

1. Cc1cc(OCc2ccc(-c3cccc(C(F)(F)F)c3)nc2C)ccc1OC(C)(C)C(=O)O
2. Cc1cc(OC(C)c2ccc(-c3ccc(C(F)(F)F)cc3)nc2C)ccc1SCC(=O)O (racemic)
Query block: Given 1 and 2 , report the one with the higher recorded pIC50. Lab note: record the label of whichever item you select.
Result block: 2
